# SYSTEM TESTED: PBK (Homo sapiens (Human))
# Sequence (Q96KB5 whole entry): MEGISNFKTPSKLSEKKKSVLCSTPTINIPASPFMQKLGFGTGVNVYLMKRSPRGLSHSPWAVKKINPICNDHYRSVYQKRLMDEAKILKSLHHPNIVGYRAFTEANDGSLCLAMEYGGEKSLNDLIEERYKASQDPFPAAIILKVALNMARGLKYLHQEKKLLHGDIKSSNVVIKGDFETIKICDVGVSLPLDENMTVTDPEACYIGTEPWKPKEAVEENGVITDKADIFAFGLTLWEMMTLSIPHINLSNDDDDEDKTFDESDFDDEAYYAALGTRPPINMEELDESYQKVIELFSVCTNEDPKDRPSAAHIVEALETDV
# PROCEDURE SUMMARY: Kinase assay (IMAP fluorescence polarization, FITC-labeled histone H3 peptide)
# Assay type: biochemical
# EXPERIMENTAL CONTEXT: PBK 0.8 ng/micro-L, 50 micro-M ATP, 100 nM FITC-labeled histone H3 peptide, room temperature 1 hour
Counter-ions that a name gives are not always drawn.
ENDPOINT NAME: IC50 (nM)
Please reply with the bare figure in nM and do not write the unit itself.

1. CC(CCl)NS(=O)(=O)c1ccc(-c2c(O)ccc3[nH]c(=O)c4sccc4c23)cc1 (stereo not shown) = 15
2. CC(C)C(CN)c1ccc(-c2c(O)ccc3[nH]c(=O)c4sccc4c23)cc1 (stereo not shown) = 1.4
3. C[C@@H](CN)c1ccc(-c2c(O)cc(Cl)c3[nH]c(=O)c4sccc4c23)cc1 [Compound 1166, hydrochloride] = 4.4

Query: State the recorded IC50 for this entry: CN[C@H](C)c1ccc(-c2c(O)cc(Cl)c3[nH]c(=O)c4sccc4c23)cc1 [Compound 1132, hydrochloride]
Response: 14

Query: State the recorded IC50 for this entry: `Cc1cc(O)c(-c2ccc(CCC#N)cc2)c2c1[nH]c(=O)c1sccc12`
Response: 92

Query: State the recorded IC50 for this entry: CNC[C@H](C)c1ccc(-c2c(O)ccc3[nH]c(=O)c4sccc4c23)cc1 [Compound 1187, hydrochloride]
Response: 1.3

Query: State the recorded IC50 for this entry: C[C@@H](CN(C)C)c1ccc(-c2c(O)cc(Cl)c3[nH]c(=O)c4sccc4c23)cc1 [Compound 1347, hydrochloride]
Response: 43

###

IC50: recorded values
# SYSTEM TESTED: PBK (Homo sapiens (Human))
# PROCEDURE SUMMARY: Kinase assay (IMAP fluorescence polarization, FITC-labeled histone H3 peptide)
# Format: biochemical
# EXPERIMENTAL CONTEXT: PBK 0.8 ng/micro-L, 50 micro-M ATP, 100 nM FITC-labeled histone H3 peptide, room temperature 1 hour
Structures can show the parent of a compound that is named as a salt.
Please reply with the bare figure in nM and do not write the unit itself.

1) Cc1cc(O)c(-c2ccc([C@H](C)CN)c(F)c2)c2c1[nH]c(=O)c1sccc12 = 14

Query: State the recorded IC50 for this entry: CNCC(c1ccc(-c2c(O)cc(C)c3[nH]c(=O)c4sccc4c23)cc1)C(C)C (centres unmarked)
Response: 50

Query: State the recorded IC50 for this entry: Cc1cc(O)c(-c2ccc(CCN)cc2)c2c1[nH]c(=O)c1sccc12 [Compound 1191, hydrochloride]
Response: 19

Query: State the recorded IC50 for this entry: `COc1ccc2[nH]c(=O)c3sccc3c2c1-c1ccc(S(=O)(=O)NCCCl)cc1`
Response: 70

Query: State the recorded IC50 for this entry: COc1ccc2[nH]c(=O)c3sccc3c2c1-c1ccc([C@@H](C)CN)cc1 [Compound 1161, hydrochloride]
Response: 2

Query: State the recorded IC50 for this entry: Cc1cc(O)c(-c2ccc(C(C)(C)CN)cc2)c2c1[nH]c(=O)c1sccc12 [Compound 1228, hydrochloride]
Response: 39

Query: State the recorded IC50 for this entry: Cc1cc(O)c(-c2ccc(CCN)c(F)c2)c2c1[nH]c(=O)c1sccc12 [Compound 1217, hydrochloride]
Response: 4.7

Query: State the recorded IC50 for this entry: NCCc1ccc(-c2c(O)cc(Cl)c3[nH]c(=O)c4sccc4c23)cc1F [Compound 1219, hydrochloride]
Response: 5.5
